system: CNS GC 4538; assay: In vitro MIC, broth dilution; type: cell-based
property label: MIC

Reference set, count: 3
INSERT INTO assay_data (compound, system_tested, measurement) VALUES
  ('COc1ccc(Cn2c(=O)ccn([C@@H]3OC([C@H](O)[C@H](NCCCNC(=O)[C@@H](NC(=O)OCc4ccccc4)[C@H](C)O)C(=O)OC(C)(C)C)[C@@H](O[Si](C)(C)C(C)(C)C)[C@H]3O[Si](C)(C)C(C)(C)C)c2=O)cc1 (stereo partly shown)', 'CNS GC 4538', '> 128 µg/mL'),
  ('COc1ccc(Cn2c(=O)ccn([C@@H]3OC([C@H](O)[C@H](NC(=O)CCCCCCCCCCNC(=O)OCC4c5ccccc5-c5ccccc54)C(=O)OC(C)(C)C)[C@@H](O[Si](C)(C)C(C)(C)C)[C@H]3O[Si](C)(C)C(C)(C)C)c2=O)cc1 (stereo partly shown)', 'CNS GC 4538', '> 128 µg/mL'),
  ('COc1ccc(Cn2c(=O)ccn([C@@H]3OC([C@H](O)[C@H](NCCCNC(=O)C(NC(=O)[C@H](CCCNC(=N)N[N+](=O)[O-])NC(=O)N[C@H](C(=O)OCc4ccccc4)C(C)C)[C@@H](C)O)C(=O)OC(C)(C)C)[C@@H](O[Si](C)(C)C(C)(C)C)[C@H]3O[Si](C)(C)C(C)(C)C)c2=O)cc1 (stereo partly shown)', 'CNS GC 4538', '128 µg/mL');

Now for the compound whose MIC we want.
// MIC value for CCOC(=O)C(NCCCNC(=O)[C@H](CC(C)C)NC(=O)[C@H](CCCNC(=N)N[N+](=O)O)NC(=O)N[C@H](C(=O)OCc1ccccc1)C(C)C)C(OC(C)=O)[C@H]1O[C@H](n2ccc(=O)[nH]c2=O)[C@H](OC(C)=O)[C@@H]1OC(C)=O (stereo partly shown) : > 128 µg/mL

----------
tested on: S. aureus GC 4536; test: In vitro MIC, broth dilution; assay type: cell-based; conditions: Staphylococcus aureus, GC4536
Can you tell me MIC for the items I'm about to list?

Reference set, count: 2
INSERT INTO measurements (compound, measurement) VALUES
  ('COc1ccc(Cn2c(=O)ccn([C@@H]3OC([C@H](O)[C@H](NCCCNC(=O)CCCCCCCCCCNC(=O)OCC4c5ccccc5-c5ccccc54)C(=O)OC(C)(C)C)[C@@H](O[Si](C)(C)C(C)(C)C)[C@H]3O[Si](C)(C)C(C)(C)C)c2=O)cc1 (stereo partly drawn)', '> 128 mg/L'),
  ('COc1ccc(Cn2c(=O)ccn([C@@H]3OC([C@H](O)[C@H](NCCCNC(=O)[C@H](CC(=O)OCc4ccccc4)NC(=O)OCc4ccccc4)C(=O)OC(C)(C)C)[C@@H](O[Si](C)(C)C(C)(C)C)[C@H]3O[Si](C)(C)C(C)(C)C)c2=O)cc1 (stereo partly drawn)', '> 128 mg/L');

Now for the compound whose MIC we want.
// MIC value for COc1ccc(Cn2c(=O)ccn([C@@H]3OC([C@H](O)[C@H](NCCCNC(=O)[C@H](CC(C)C)NC(=O)[C@H](CCCNC(=N)N[N+](=O)O)NC(=O)N[C@H](C(=O)OCc4ccccc4)C(C)C)C(=O)OC(C)(C)C)[C@@H](O[Si](C)(C)C(C)(C)C)[C@H]3O[Si](C)(C)C(C)(C)C)c2=O)cc1 (stereo partly drawn) : > 128 mg/L

Value source: patent US6858591B2
